// provenance: patent US20140056903A1

Consider the following binders; for each one, report its koff.
Biological target: T1, monkey GFRα3 expressed with a C-terminal myc-myc-hexahistidine tag (monkey (Mf), UniProt O60609 32-374 (human entry), limits assumed)
T1 construct: also called MfGFRα3-mmh; MfGFRα3-mmH
T1 chain: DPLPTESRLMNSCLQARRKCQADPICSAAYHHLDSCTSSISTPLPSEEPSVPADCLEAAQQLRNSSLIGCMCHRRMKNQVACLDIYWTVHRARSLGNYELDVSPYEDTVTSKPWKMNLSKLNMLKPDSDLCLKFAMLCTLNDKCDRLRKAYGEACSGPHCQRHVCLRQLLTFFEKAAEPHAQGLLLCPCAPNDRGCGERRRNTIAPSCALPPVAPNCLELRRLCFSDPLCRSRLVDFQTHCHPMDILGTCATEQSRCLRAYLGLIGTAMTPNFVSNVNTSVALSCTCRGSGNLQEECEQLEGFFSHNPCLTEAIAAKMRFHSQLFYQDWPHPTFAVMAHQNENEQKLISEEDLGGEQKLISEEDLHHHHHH
Test: SPR, Ab captured, 37C
Answers are plain numbers, in s⁻¹.

Guide cases for koff, answers given:
# binder, attribute.measured, value
measured = [
    ("H4H2364S (antibody, human IgG4, V domains shown, human IgG4 Fc (H4H)) VH: EVQLVESGGGLEQPGGSLRLSCAASGFTFSSYVMSWVRQVPGKGLEWVSVISGSGGSTYYADSVKGRFTISRDNSKNTLYLQMNSLRAEDTAVYYCAKPSSYSSSNFHYGMDVWGQGTTVTVSS VL: DIQMTQSPYSVSASVGDRVTITCRASQGISSWLAWYQQKPGRAPKLLIYAASSLQSGVPSRFSGSGSGTDFTLTISSLQPEDFATYYCQKTNSFPFTFGPGTKVEIK", "koff", 0.000861),
    ("H4H2292S (antibody, human IgG4, V domains shown, human IgG4 Fc (H4H)) VH: EVQLVESGGGVVQPGRSLRLSCAASGFTFSSYGMHWVRQAPGKGLEWVSFIWYDGSNKYYADSVKGRFTISRDNSKNTLYLQMNSLTAEDTAVYYCARRGILTGTTAFDIWGQGTMVTVSS VL: DIQMTQSPSSLSASVGDRVTITCRASQSISSYLNWYQQKPGKAPKLLIYAASSLQSGVPSRFSGSGSGTDFTLTIRSLIPEDFATYYCQQTYNTPFTFGPGTKVEIK", "koff", 0.000195),
]

// below: koff requested for another binder
(Q) For the binder H4H2291S (antibody, human IgG4, V domains shown, human IgG4 Fc (H4H)) VH: EVQLVESGGGLVQPGESLRLSCAASGFTFSNYAMSWVRQAPGKGLEWVSVISGSGGSTYYADSVKGRFTMSRDNSKNTLYLQMNSLRAEDTAVYYCAKPPSRAARYFNYGMDVWGQGTTVTVSS VL: AIRMTQSPSSVSASVGDRVTITCRASQGISSWLAWYQQKPGKAPKLLIYAASSLQSGVPSRFSGSGSGTDFTLTISSLQPEDFATYYCQQANSFPFTFGGGTKVEIK , what koff is on record?
(A) 0.000693
